tested on: SNB-75 CNS; assay: NCI tumour cell line growth inhibition, 48 h
# reported TGI; entries follow
QUANTITY_MEASURED: TGI (µM)

[[record]]
compound = "Cc1ccc(OCC2OC(n3cnc4c(Cl)nc(N)nc43)CC2Oc2ccc(C)cc2)cc1 (stereo unspecified)"
quantity_measured = "TGI"
censoring_operator = ">"
readout_value = 100

[[record]]
compound = "N#C/C(=C\\c1ccsc1)c1nc2ccccc2o1"
quantity_measured = "TGI"
censoring_operator = "="
readout_value = 65.5

[[record]]
compound = "C/C=C/c1cc(=O)c([C@@H]2OC(=O)c3cc(OC)cc(OC)c32)co1"
quantity_measured = "TGI"
censoring_operator = "="
readout_value = 60.3

[[record]]
compound = "CC1CCC/C1=C(/I)C(=O)c1ccccc1 (stereo unspecified)"
quantity_measured = "TGI"
censoring_operator = "="
readout_value = 85

[[record]]
compound = "C=Cc1cncc(C#N)c1CCc1c(C#N)cncc1C=C"
quantity_measured = "TGI"
censoring_operator = ">"
readout_value = 100

[[record]]
compound = "Cc1cc(NC(=O)NC(=O)c2ccccc2NC(=O)C(C)N)ccc1Oc1ncc(Br)cn1 (stereo unspecified)"
quantity_measured = "TGI"
censoring_operator = "="
readout_value = 2.47

[[record]]
compound = "COc1ccc2c(CN3CCCC[C@H]3C(=O)O)cc3cc4c(cc3c2c1)OCO4"
quantity_measured = "TGI"
censoring_operator = "="
readout_value = 2.28

[[record]]
compound = "CC(=O)NCCC1CN(C(=O)/C=C/I)c2ccccc21 (stereo unspecified)"
quantity_measured = "TGI"
censoring_operator = "="
readout_value = 30.7

[[record]]
compound = "CCOc1cc2c(C(=O)CC)c(O)ccc2o1"
quantity_measured = "TGI"
censoring_operator = ">"
readout_value = 100

[[record]]
compound = "CCC1(c2ccccc2)Sc2ccccc2-n2cccc2C1=O (stereo unspecified)"
quantity_measured = "TGI"
censoring_operator = ">"
readout_value = 10

[[record]]
compound = "ClCCCc1ccccc1C1=NCCc2ccccc21"
quantity_measured = "TGI"
censoring_operator = ">"
readout_value = 100

